From: patent US9611249B2

biological target: CDK2 (h) (cycA) (Homo sapiens (Human), UniProt P24941); assay: Kinase selectivity panel: CDK2 (h) (cycA); assay type: biochemical; conditions: 10 μM in duplicate, read-out: % inhibition of control values
reported-property: inhibition at 10 µM (%)
Express it in %; write the number only.

>  <smiles-string>
COCCN1CCC(CNC(=O)c2n[nH]c3ccc(-c4cccc(F)c4F)cc23)CC1

>  <unit-tag>
%

>  <inhibition at 10 µM>
92

$$$$
>  <smiles-string>
COc1ccc2[nH]nc(C(=O)NCC3CCN(CC(=O)O)CC3)c2c1

>  <unit-tag>
%

>  <inhibition at 10 µM>
18

$$$$
>  <smiles-string>
CCc1ccc2[nH]nc(C(=O)NCC3CCN(CC(=O)O)CC3)c2c1

>  <unit-tag>
%

>  <inhibition at 10 µM>
35

$$$$
>  <smiles-string>
O=C(O)CN1CCC(CNC(=O)c2n[nH]c3ccc(-c4cccc(F)c4F)cc23)CC1

>  <unit-tag>
%

>  <inhibition at 10 µM>
77

$$$$
>  <smiles-string>
COCCN1CCC(CNC(=O)c2n[nH]c3ccc(OC)cc23)CC1

>  <unit-tag>
%

>  <inhibition at 10 µM>
11

$$$$

Shift focus to the following entry.
Recorded inhibition at 10 µM of `COc1ccc2[nH]nc(C(=O)NCC3CCN(CCC(=O)O)CC3)c2c1` , please.
21

====

Documented inhibition at 10 µM across a set of compounds
target: human GSK-3β (Homo sapiens (Human)); assay: Activity on human GSK-3β, LANCE substrate phosphorylation assay; format: biochemical; conditions: 10 μM, in duplicate, first screening assay
Express it in %; write the number only.

>  <compound>
COCCN1CCC(CNC(=O)c2n[nH]c3ccc(OC)cc23)CC1 [Compound 2]

>  <inhibition at 10 µM [%]>
85

$$$$
>  <compound>
COc1ccc2[nH]nc(C(=O)NCC3CCN(CC(=O)O)CC3)c2c1 [Compound 1]

>  <inhibition at 10 µM [%]>
92

$$$$
>  <compound>
O=C(O)CN1CCC(CNC(=O)c2n[nH]c3cc(O)c(Br)cc23)CC1 [Compound 41]

>  <inhibition at 10 µM [%]>
71

$$$$

Lab note: need inhibition at 10 µM with human GSK-3β (Homo sapiens (Human)) for entry COc1ccc2[nH]nc(C(=O)NCC3CCN(CCC(=O)O)CC3)c2c1 [Compound 3] , please look it up.
94

====

molecular target: human GSK-3β (Homo sapiens (Human), UniProt P49841); experiment: GSK-3β LanthaScreen TR-FRET Eu Kinase binding and displacement assay; details: compounds 16 to 41, LanthaScreen TR-FRET binding and displacement assay, five concentrations 100 μM to 10 nM
Sequence (P49841 whole entry): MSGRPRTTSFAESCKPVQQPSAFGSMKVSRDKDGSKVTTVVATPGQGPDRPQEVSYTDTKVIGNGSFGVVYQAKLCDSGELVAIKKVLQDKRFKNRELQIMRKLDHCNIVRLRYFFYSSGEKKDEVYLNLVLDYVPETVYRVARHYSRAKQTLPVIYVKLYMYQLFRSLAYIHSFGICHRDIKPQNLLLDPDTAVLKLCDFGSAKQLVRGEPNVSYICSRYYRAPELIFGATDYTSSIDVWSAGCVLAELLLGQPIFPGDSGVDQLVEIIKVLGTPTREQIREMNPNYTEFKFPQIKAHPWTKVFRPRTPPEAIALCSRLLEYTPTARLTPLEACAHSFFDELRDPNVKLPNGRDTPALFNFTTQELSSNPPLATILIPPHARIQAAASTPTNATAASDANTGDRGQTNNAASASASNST
Documented pIC50 across a set of molecules
pIC50 here is simply -log10 of the concentration when that concentration is written in mol/L.

Recorded pIC50 of `COc1ccc2[nH]nc(C(=O)NCC3CCN(CCCNC(=O)c4ccccc4)CC3)c2c1` , please.
5.47

====

Target: EphB4 kinase (h) (Homo sapiens (Human), UniProt P54760)
Sequence (P54760 16-987): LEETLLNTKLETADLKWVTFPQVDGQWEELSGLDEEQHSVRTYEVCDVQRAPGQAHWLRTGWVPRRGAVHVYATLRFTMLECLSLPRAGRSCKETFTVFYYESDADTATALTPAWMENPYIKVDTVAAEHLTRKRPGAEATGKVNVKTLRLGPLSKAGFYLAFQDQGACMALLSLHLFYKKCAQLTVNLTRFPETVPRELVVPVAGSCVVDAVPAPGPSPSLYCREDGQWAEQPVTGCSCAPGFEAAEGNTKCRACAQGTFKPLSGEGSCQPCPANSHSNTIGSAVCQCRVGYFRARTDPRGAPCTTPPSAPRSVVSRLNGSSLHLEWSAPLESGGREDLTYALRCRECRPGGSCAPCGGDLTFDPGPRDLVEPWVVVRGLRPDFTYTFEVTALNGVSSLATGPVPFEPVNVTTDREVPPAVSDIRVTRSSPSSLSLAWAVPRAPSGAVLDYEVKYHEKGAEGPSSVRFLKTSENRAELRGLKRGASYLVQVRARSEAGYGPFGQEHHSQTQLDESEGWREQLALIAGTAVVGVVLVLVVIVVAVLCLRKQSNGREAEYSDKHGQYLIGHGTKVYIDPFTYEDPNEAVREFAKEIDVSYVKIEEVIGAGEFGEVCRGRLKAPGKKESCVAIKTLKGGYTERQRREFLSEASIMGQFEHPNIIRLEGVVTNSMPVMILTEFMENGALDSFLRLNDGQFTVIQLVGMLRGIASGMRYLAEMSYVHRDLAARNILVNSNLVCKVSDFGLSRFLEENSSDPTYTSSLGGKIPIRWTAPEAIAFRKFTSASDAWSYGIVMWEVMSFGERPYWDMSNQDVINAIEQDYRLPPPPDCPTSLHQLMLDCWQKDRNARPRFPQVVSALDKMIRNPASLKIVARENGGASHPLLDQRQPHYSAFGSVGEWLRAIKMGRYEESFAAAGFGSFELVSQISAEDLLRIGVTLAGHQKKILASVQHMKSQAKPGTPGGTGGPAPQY
Assay: Kinase selectivity panel: EphB4 kinase (h)
Format: biochemical
Settings: 10 μM in duplicate, read-out: % inhibition of control values
Protocol: (a) Compounds 1 and 2 were tested against a panel of 60 kinases in order to assess their selectivity. The assays were chosen taking into consideration the diversity of assay families. […] Human recombinant kinases were incubated in the presence of specific peptide substrates plus ATP for different times (10, 15, 30, 60 or 90 minutes) at 22° C. Phosphorylated substrate was detected by LANCE or HTRF technology (CISBIO, MA, USA). […]
reported-property: inhibition at 10 µM (%)
Express it in %; write the number only.

These solved cases illustrate the format of a correct answer.
>  <smiles-string>
COCCN1CCC(CNC(=O)c2n[nH]c3ccc(OC)cc23)CC1

>  <measured-target>
EphB4 kinase (h) (Homo sapiens (Human), UniProt P54760)

>  <unit-tag>
%

>  <inhibition at 10 µM>
17

$$$$
>  <smiles-string>
COc1ccc2[nH]nc(C(=O)NCC3CCN(CCC(=O)O)CC3)c2c1

>  <measured-target>
EphB4 kinase (h) (Homo sapiens (Human), UniProt P54760)

>  <unit-tag>
%

>  <inhibition at 10 µM>
0

$$$$

Recorded inhibition at 10 µM of `COCCN1CCC(CNC(=O)c2n[nH]c3ccc(-c4cccc(F)c4F)cc23)CC1` , please.
0

Recorded inhibition at 10 µM of `COc1ccc2[nH]nc(C(=O)NCC3CCN(CC(=O)O)CC3)c2c1` , please.
2
